Data origin, for the record: patent US11566007B2

Answer each item with its documented IC50.
Target: K-Ras G13C (Homo sapiens (Human), UniProt P01116+P62937, G13C)
Sequence (P01116-2 other isoform, or with tags, fused parts or gaps G13C): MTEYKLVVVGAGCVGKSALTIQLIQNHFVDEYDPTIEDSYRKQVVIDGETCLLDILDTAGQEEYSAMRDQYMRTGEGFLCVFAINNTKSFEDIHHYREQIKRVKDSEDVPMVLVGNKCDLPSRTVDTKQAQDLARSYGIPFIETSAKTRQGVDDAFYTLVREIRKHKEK
Sequence (P62937 whole entry): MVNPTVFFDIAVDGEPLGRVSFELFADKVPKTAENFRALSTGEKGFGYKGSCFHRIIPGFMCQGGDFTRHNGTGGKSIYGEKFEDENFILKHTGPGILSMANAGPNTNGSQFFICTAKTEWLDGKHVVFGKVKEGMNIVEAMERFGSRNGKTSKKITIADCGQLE
Experiment: Ras-Raf (BRAF RBD) disruption / FRET / MOA assay, KRAS G13C
Assay type: biochemical
Conditions: KRAS G13C; Ras-Raf disruption/FRET/MOA assay; read-out: IC50* KRAS G13C FRET data

Value of IC50 reported for the compound CCn1c(-c2cccnc2[C@H](C)OC)c2c3cc(ccc31)-c1csc(n1)C[C@H](NC(=O)[C@H](C(C)C)N(C)C(=O)N1CCC3(CC1)CN(C(=O)/C=C/CN1CCCCC1)C3)C(=O)N1CCC[C@H](N1)C(=O)OCC(C)(C)C2 (atropisomer, axis not shown) [Example A670] is 100 to 1000 nM

Value of IC50 reported for the compound C=CC(=O)N1C[C@@H]2[C@H](C1)[C@@H]2C(=O)N(C)[C@H](C(=O)N[C@H]1Cc2cc(O)cc(c2)-c2ccc3c(c2)c(c(-c2cccnc2[C@H](C)OC)n3CC)CC(C)(C)COC(=O)[C@@H]2CCCN(N2)C1=O)C(C)C (atropisomer, axis not shown) [Example A319] is 10 to 100 nM

Value of IC50 reported for the compound CCn1c(-c2ccccc2CN(C)C)c2c3cc(ccc31)-c1cc(O)cc(c1)C[C@H](NC(=O)[C@@H](C(C)C)N(C)C(=O)c1ncc(NC(=O)/C=C/CN(C)C)n1C)C(=O)N1CCC[C@H](N1)C(=O)OCC(C)(C)C2 [Example A126] is 100 to 1000 nM

Value of IC50 reported for the compound CCn1c(-c2cccnc2[C@H](C)OC)c2c3cc(ccc31)-c1cc(O)cc(c1)C[C@H](NC(=O)[C@H](C(C)C)N(C)C(=O)C1CN(C(=O)/C=C/CN(C)C)C1)C(=O)N1CCC[C@H](N1)C(=O)OCC(C)(C)C2 (atropisomer, axis not shown) [Example A257] is 10 to 100 nM
